Form field: IC50 (one value per entry).
system: pancreatic cancer cells CFPAC-1; assay: In vitro proliferation inhibition, CFPAC-1; format: cell-based; settings: unit inferred
reported_property: IC50 (nM)

CCON=C1c2ccccc2C(=O)c2c1[n+](C)cn2C.[I-]; 9
Cn1c[n+](C)c2c1C(=O)c1ccccc1C2=NOCc1ccccc1.[I-]; 6
CON=C1c2ccccc2C(=O)c2c1[n+](C)cn2C.[I-]; 7

----------
Form field: IC50 (one value per entry).
test system: L929; assay: In vitro cell proliferation inhibition test (MTT), L929; type: cell-based; settings: 24 h or 48 h after addition, unit inferred
reported_property: IC50 (µM)

CC(C)ON=C1c2ccccc2C(=O)c2c1[n+](C)cn2C.[I-]; 29.6
CC(C)=CCn1c[n+](C)c2c1C(=O)c1ccccc1/C2=N\O; 13.1
C=CCON=C1c2ccccc2C(=O)c2c1[n+](C)cn2C; 2.4
C=CCON=C1c2cc3ccccc3cc2C(=O)c2c1[n+](C)cn2C; 97.8

Origin of the recorded values: patent US20250163002A1
